# targetOfAssay: UniProtKB P0DTD1
# testName: biochemical

compound | IC50, µM
CC1(C)[C@@H]2[C@@H](C(=O)NN(C[C@@H]3CCNC3=O)C(=O)[C@H](F)Cl)N(C(=O)/C=C/c3cc(F)cc(F)c3)C[C@@H]21 [Example 181] | 0.208
CCC(C)(C)[C@H](NC(=O)C1CC1)C(=O)N1C[C@H]2[C@@H]([C@H]1C(=O)NN(C[C@@H]1CCNC1=O)C(=O)[C@H](F)Cl)C2(C)C [Example 142] | 0.01
CCC(CC)[C@H](NC(=O)C(C)F)C(=O)N1CC(C)(C)C[C@H]1C(=O)NN(C[C@@H]1CCNC1=O)C(=O)[C@H](F)Cl (mixture of isomers) [Example 137] | 0.018
CCC(CC)[C@H](NC(=O)C1(F)CC1)C(=O)N1CC(C)(C)C[C@H]1C(=O)NN(C[C@@H]1CCNC1=O)C(=O)[C@H](F)Cl [Example 138] | 0.016
CC[C@H](C)[C@H](NC(=O)C(F)F)C(=O)N1C[C@@H]2CCC[C@@H]2[C@H]1C(=O)NN(C[C@@H]1CCNC1=O)C(=O)[C@H](F)Cl [Example 39] | 0.009

---

# pIC50 per entry for MERS-CoV 3CLpro (Middle East respiratory syndrome-related coronavirus, UniProt K9N7C7)
pIC50: −log10 of the molar value.

compound | targetOfAssay | pIC50
CC[C@H](C)[C@H](NC(=O)C1(F)CC1)C(=O)N1C[C@H](C(F)(F)F)C[C@H]1C(=O)NN(C[C@@H]1CCNC1=O)C(=O)[C@H](F)Cl [Example 160] | MERS-CoV 3CLpro (Middle East respiratory syndrome-related coronavirus, UniProt K9N7C7) | 6.98
CC[C@H](C)[C@H](NC(=O)C1(F)CC1)C(=O)N1C[C@H]2[C@@H]([C@H]1C(=O)NN(C[C@H]1CCCNC1=O)C(=O)[C@H](F)Cl)C2(C)C [Example 166b] | MERS-CoV 3CLpro (Middle East respiratory syndrome-related coronavirus, UniProt K9N7C7) | 6.62
CCC(CC)[C@H](NC(=O)C1CC1)C(=O)N1C[C@@H]2CCC[C@@H]2[C@H]1C(=O)NN(C[C@@H]1CCNC1=O)C(=O)[C@H](F)Cl [Example 135] | MERS-CoV 3CLpro (Middle East respiratory syndrome-related coronavirus, UniProt K9N7C7) | 6.88
CC[C@@H](C)[C@H](NC(=O)C(F)(F)F)C(=O)N1C[C@H]2[C@@H]([C@H]1C(=O)NN(C[C@@H]1CCNC1=O)C(=O)[C@H](F)Cl)C2(C)C [Example 64] | MERS-CoV 3CLpro (Middle East respiratory syndrome-related coronavirus, UniProt K9N7C7) | 7.15
CC(C)C(=O)N[C@H](C(=O)N1C[C@H]2[C@@H]([C@H]1C(=O)NN(C[C@@H]1CCNC1=O)C(=O)[C@H](F)Cl)C2(C)C)C(C)(C)C [Example 13] | MERS-CoV 3CLpro (Middle East respiratory syndrome-related coronavirus, UniProt K9N7C7) | 7.03
CCC(CC)[C@H](NC(=O)C1CC(F)(F)C1)C(=O)N1C[C@@H]2CCC[C@@H]2[C@H]1C(=O)NN(C[C@@H]1CCNC1=O)C(=O)[C@H](F)Cl [Example 134] | MERS-CoV 3CLpro (Middle East respiratory syndrome-related coronavirus, UniProt K9N7C7) | 7.01
CC1(C)[C@@H]2[C@@H](C(=O)NN(C[C@@H]3CCNC3=O)C(=O)[C@H](F)Cl)N(C(=O)COc3cc(F)cc(F)c3)C[C@@H]21 [Example 17] | MERS-CoV 3CLpro (Middle East respiratory syndrome-related coronavirus, UniProt K9N7C7) | 6.39
CC[C@H](C)[C@H](NC(=O)C1CC(F)(F)C1)C(=O)N1C[C@H]2[C@@H]([C@H]1C(=O)NN(C[C@@H]1CCNC1=O)C(=O)[C@H](F)Cl)C2(C)C [Example 58] | MERS-CoV 3CLpro (Middle East respiratory syndrome-related coronavirus, UniProt K9N7C7) | 7.14
CCC(CC)[C@H](NC(=O)C1CC(F)(F)C1)C(=O)N1C[C@H]2[C@@H]([C@H]1C(=O)NN(C[C@@H]1CCNC1=O)C(=O)[C@H](F)Cl)C2(C)C [Example 130] | MERS-CoV 3CLpro (Middle East respiratory syndrome-related coronavirus, UniProt K9N7C7) | 7.06
CC[C@H](C)[C@H](NC(=O)C1(C)CC1)C(=O)N1C[C@H]2[C@@H]([C@H]1C(=O)NN(C[C@@H]1CCNC1=O)C(=O)[C@H](F)Cl)C2(C)C [Example 60] | MERS-CoV 3CLpro (Middle East respiratory syndrome-related coronavirus, UniProt K9N7C7) | 7.33
CC[C@H](C)[C@H](NC(=O)C(C)(C)C)C(=O)N1C[C@H]2[C@@H]([C@H]1C(=O)NN(C[C@@H]1CCNC1=O)C(=O)[C@H](F)Cl)C2(C)C [Example 52] | MERS-CoV 3CLpro (Middle East respiratory syndrome-related coronavirus, UniProt K9N7C7) | 7.24

---

pIC50: −log10 of the molar value.
# pIC50 per entry for HCoV-229E 3CLpro (Human coronavirus 229E)
reportedEndpoint: pIC50

molecule | targetOfAssay | reportedEndpoint | readoutNumber
CC(C)(C)C(=O)N[C@H](C(=O)N1C[C@H]2[C@@H]([C@H]1C(=O)NN(C[C@@H]1CCNC1=O)C(=O)[C@H](F)Cl)C2(C)C)C(C)(C)C [Example 11] | HCoV-229E 3CLpro (Human coronavirus 229E) | pIC50 | 7.25
CC[C@H](C)[C@H](NC(=O)C(F)(F)F)C(=O)N1C[C@H]2[C@@H]([C@H]1C(=O)NN(C[C@@H]1CCNC1=O)C(=O)[C@H](F)Cl)C2(C)C [Example 63] | HCoV-229E 3CLpro (Human coronavirus 229E) | pIC50 | 7.74
CC(C)(C)[C@H](NC(=O)C1CC(F)(F)C1)C(=O)N1C[C@H]2[C@@H]([C@H]1C(=O)NN(C[C@@H]1CCNC1=O)C(=O)[C@@H](F)Cl)C2(C)C [Example 93] | HCoV-229E 3CLpro (Human coronavirus 229E) | pIC50 | 7.38
CC(C)C(=O)N[C@H](C(=O)N1C[C@H]2[C@@H]([C@H]1C(=O)NN(C[C@@H]1CCNC1=O)C(=O)[C@H](F)Cl)C2(C)C)C(C)(C)C [Example 13] | HCoV-229E 3CLpro (Human coronavirus 229E) | pIC50 | 7.62
CC1(C)[C@@H]2[C@@H](C(=O)NN(C[C@@H]3CCNC3=O)C(=O)[C@H](F)Cl)N(C(=O)Cc3cc(C(F)(F)F)cc(C(F)(F)F)c3)C[C@@H]21 [Example 178] | HCoV-229E 3CLpro (Human coronavirus 229E) | pIC50 | 7.19

---

Listed below: IC50 values for each entry.
# targetOfAssay: SARS-CoV-2 3CLpro (Severe acute respiratory syndrome coronavirus 2)
# testName: biochemical
# appliedConditions: read-out: IC50 in SARS-CoV-2 3CLpro assay
reportedEndpoint: IC50 (nM)

smi | targetOfAssay | measureUnit | readoutNumber
CC(C)(C)[C@H](NC(=O)C(F)(F)F)C(=O)N1C[C@@H]2CCC[C@@H]2[C@H]1C(=O)NN(C[C@@H]1CCNC1=O)C(=O)[C@H](F)Cl | SARS-CoV-2 3CLpro (Severe acute respiratory syndrome coronavirus 2) | nM | 6
CCC(C)(C)[C@H](NC(=O)C1(F)CC1)C(=O)N1C[C@@H]2CCC[C@@H]2[C@H]1C(=O)NN(C[C@@H]1CCNC1=O)C(=O)[C@H](F)Cl | SARS-CoV-2 3CLpro (Severe acute respiratory syndrome coronavirus 2) | nM | 6
CC[C@H](C)[C@H](NC(=O)[C@@H](F)Cl)C(=O)N1C[C@@H]2CCC[C@@H]2[C@H]1C(=O)NN(C[C@@H]1CCCNC1=O)C(=O)[C@@H](F)Cl | SARS-CoV-2 3CLpro (Severe acute respiratory syndrome coronavirus 2) | nM | 7

---

# targetOfAssay: SARS-CoV 3CLpro (Severe acute respiratory syndrome coronavirus)
pIC50: −log10 of the molar value.
Listed below: pIC50 values for each entry.

compound | pIC50
CC(C)C(=O)N[C@H](C(=O)N1CC2(CC2)C[C@H]1C(=O)NN(C[C@@H]1CCNC1=O)C(=O)[C@H](F)Cl)C(C)(C)C [Example 25] | 7.57
CC1([C@H](NC(=O)C(F)(F)F)C(=O)N2CC3(CC3)C[C@H]2C(=O)NN(C[C@@H]2CCNC2=O)C(=O)[C@H](F)Cl)CC1 [Example 24] | 7.89
CCC(CC)[C@H](NC(=O)C(F)F)C(=O)N1C[C@H]2[C@@H]([C@H]1C(=O)NN(C[C@@H]1CCCNC1=O)C(=O)[C@H](F)Cl)C2(C)C [Example 173] | 7.74
CC(C)(C)[C@H](NC(=O)C(F)(F)F)C(=O)N1C[C@H](C(F)(F)F)C[C@H]1C(=O)NN(C[C@@H]1CCNC1=O)C(=O)[C@H](F)Cl [Example 23] | 7.96
CC(C)C(=O)N[C@H](C(=O)N1C[C@H]2[C@@H]([C@H]1C(=O)NN(C[C@@H]1CCNC1=O)C(=O)[C@H](F)Cl)C2(C)C)C(C)(C)C [Example 13] | 7.85
CCC(CC)[C@H](NC(=O)C(F)F)C(=O)N1CC(C)(C)C[C@H]1C(=O)NN(C[C@@H]1CCNC1=O)C(=O)[C@H](F)Cl [Example 139] | 7.74
